# SYSTEM TESTED: full-length ATR (Homo sapiens, UniProt Q13535)
# Construct: Assays are carried out at 25° C. in the presence of 5 nM full-length ATR
# Sequence (Q13535 whole entry): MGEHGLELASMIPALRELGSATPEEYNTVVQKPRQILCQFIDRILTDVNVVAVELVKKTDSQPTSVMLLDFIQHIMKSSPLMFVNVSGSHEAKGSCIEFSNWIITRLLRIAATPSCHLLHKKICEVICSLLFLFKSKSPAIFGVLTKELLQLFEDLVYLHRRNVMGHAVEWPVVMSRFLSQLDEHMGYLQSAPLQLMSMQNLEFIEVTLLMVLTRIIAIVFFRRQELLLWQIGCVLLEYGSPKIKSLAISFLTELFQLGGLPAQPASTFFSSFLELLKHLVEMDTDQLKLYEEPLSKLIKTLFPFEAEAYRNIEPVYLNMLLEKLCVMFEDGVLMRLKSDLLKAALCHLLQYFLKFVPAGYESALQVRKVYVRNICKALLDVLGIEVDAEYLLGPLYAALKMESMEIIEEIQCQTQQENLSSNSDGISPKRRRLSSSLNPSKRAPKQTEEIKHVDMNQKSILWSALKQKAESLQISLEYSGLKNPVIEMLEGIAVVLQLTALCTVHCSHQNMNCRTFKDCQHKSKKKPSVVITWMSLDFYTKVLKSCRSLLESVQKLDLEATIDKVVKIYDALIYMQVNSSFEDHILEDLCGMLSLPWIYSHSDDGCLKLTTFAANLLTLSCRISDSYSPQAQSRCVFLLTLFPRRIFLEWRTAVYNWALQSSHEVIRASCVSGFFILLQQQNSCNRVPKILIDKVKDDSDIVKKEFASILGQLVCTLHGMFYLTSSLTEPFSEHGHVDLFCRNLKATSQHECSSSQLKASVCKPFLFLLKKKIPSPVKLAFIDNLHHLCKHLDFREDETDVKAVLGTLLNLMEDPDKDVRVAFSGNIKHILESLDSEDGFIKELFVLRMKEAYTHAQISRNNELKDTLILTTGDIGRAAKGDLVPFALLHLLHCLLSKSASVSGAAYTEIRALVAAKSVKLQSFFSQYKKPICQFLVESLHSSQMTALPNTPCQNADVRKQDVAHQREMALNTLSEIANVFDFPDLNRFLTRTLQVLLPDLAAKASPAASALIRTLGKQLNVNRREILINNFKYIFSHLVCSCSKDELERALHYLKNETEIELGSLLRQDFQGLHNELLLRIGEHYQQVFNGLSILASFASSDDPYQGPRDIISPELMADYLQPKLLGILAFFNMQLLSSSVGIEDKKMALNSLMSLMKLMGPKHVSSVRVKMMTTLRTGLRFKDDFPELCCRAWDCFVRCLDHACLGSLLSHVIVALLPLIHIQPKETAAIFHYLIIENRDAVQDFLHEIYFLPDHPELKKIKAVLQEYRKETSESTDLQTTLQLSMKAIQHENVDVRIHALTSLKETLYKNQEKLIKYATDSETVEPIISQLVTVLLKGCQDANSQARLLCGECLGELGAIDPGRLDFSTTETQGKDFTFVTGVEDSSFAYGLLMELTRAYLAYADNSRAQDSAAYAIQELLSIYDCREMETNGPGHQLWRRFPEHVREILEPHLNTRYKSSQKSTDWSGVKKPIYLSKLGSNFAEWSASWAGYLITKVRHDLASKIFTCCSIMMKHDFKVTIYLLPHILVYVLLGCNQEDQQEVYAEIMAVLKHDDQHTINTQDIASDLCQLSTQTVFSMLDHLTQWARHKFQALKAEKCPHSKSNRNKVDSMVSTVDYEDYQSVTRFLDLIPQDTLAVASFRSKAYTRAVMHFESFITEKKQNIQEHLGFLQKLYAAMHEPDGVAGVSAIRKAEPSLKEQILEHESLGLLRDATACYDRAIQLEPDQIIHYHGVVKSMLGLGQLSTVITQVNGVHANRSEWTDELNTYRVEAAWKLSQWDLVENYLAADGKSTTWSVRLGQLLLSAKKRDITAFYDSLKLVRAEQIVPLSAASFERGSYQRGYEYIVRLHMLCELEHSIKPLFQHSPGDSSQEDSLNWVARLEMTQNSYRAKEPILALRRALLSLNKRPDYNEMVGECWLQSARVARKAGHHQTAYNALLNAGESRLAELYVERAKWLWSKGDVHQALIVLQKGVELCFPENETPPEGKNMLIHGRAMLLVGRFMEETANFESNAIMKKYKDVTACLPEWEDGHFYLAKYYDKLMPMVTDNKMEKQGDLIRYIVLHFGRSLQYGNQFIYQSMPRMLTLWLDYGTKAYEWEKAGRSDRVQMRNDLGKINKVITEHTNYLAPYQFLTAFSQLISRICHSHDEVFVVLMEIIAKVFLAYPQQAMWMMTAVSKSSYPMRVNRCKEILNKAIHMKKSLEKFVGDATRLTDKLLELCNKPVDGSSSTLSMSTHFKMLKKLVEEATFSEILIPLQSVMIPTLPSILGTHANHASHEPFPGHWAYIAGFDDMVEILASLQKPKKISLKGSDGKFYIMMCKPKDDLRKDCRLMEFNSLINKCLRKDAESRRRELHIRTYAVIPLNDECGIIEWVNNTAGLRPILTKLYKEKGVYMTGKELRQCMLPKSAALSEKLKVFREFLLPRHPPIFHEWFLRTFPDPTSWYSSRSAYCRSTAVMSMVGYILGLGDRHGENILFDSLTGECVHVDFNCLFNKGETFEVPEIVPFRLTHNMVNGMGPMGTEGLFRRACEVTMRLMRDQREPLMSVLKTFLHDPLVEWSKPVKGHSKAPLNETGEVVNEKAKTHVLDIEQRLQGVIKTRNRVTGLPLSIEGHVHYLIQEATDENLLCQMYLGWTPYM
# PROTOCOL TEXT: ATR inhibition assay (radioactive-phosphate incorporation)
# CONDITION NOTES: 5 nM full-length ATR, 10 μM ATP, 800 μM target peptide, 25° C.; read-out: Ki values (Ki(app)) for inhibiting ATR
pKi: −log10 of the molar value.
PROPERTY MEASURED: pKi

Param item = Cn1cncc1-c1c(F)cncc1NC(=O)c1c(N)nn2cc(F)cnc12 ; retrieve measured pKi.
> 6.00

Measured values drawn from patent US10800781B2 for this set.
